molecular target: AZG1 (Arabidopsis thaliana, UniProt Q9SRK7)
Reported property: Kd (nM)
Note: unit nM is implicit; provide only the numeric part.

Query: Given the entry Nc1ncnc2nc[nH]c12 [adenine] , report its measured Kd.
Result: 620
